# METHOD_NOTES: Pharmacokinetics (plasma and brain levels) in ICR (CD-1) mice
# Type: in vivo
# EXPERIMENTAL_CONTEXT: male, ICR (CD-1), mouse, brain, iv, 1 mg/kg, i.v. 1 mg/kg, mouse brain, 0.083 h; read-out: Conc. in brain, individual animal
Consider the following molecules and their measured concentration at 0.083 h readings.
Kindly answer with a numeric value in ng/g, unit omitted.

Q) Endpoint output: concentration at 0.083 h of CC(=O)Nc1ccc(-c2cnc3cc(Cl)ccc3n2)cc1 . Value?
A) 1030

Q) Quick one: CC(=O)Nc1ccc(C2=Nc3ccc(Cl)cc3OC2)cc1 [CA77, reference compound]
A) 3770

----------
# METHOD_NOTES: Pharmacokinetics (plasma and brain levels) in ICR (CD-1) mice
# Format: in vivo
# EXPERIMENTAL_CONTEXT: male, ICR (CD-1), mouse, plasma, iv, 1 mg/kg, i.v. 1 mg/kg, mouse plasma, 8.00 h; read-out: Conc. in plasma, individual animal
OBSERVABLE: concentration at 8 h (ng/mL)
Form entry: value (ng/mL) — number only.

Q) Please report the recorded concentration at 8 h for CC(=O)Nc1ccc(-c2cnc3cc(Cl)ccc3n2)cc1 .
A) 2.74

----------
# METHOD_NOTES: Pharmacokinetics (plasma and brain levels) in ICR (CD-1) mice
# Format: in vivo
# EXPERIMENTAL_CONTEXT: male, ICR (CD-1), mouse, plasma, iv, 1 mg/kg, i.v. 1 mg/kg, mouse plasma, 4.00 h; read-out: Conc. in plasma, Mean
OBSERVABLE: concentration at 4 h (ng/mL)
Field format: number, assumed ng/mL, no unit text.

CC(=O)Nc1ccc(C2=Nc3ccc(Cl)cc3OC2)cc1 [CA77, reference compound] | 0.565

Q) Item under review: CC(=O)Nc1ccc(-c2cnc3cc(Cl)ccc3n2)cc1 . Reported concentration at 4 h?
A) 6

----------
# METHOD_NOTES: Pharmacokinetics (plasma and brain levels) in ICR (CD-1) mice
# Type: in vivo
# EXPERIMENTAL_CONTEXT: male, ICR (CD-1), mouse, brain, iv, 1 mg/kg, i.v. 1 mg/kg, mouse brain, 0.25 h; read-out: Conc. in brain, individual animal
OBSERVABLE: concentration at 0.25 h

Q) Fill blank: measured concentration at 0.25 h of the compound CC(=O)Nc1ccc(-c2cnc3cc(Cl)ccc3n2)cc1 [CA77.1] is ____.
A) 864 ng/g

----------
# System: chaperone-mediated autophagy (CMA) in NIH 3T3 fibroblasts
# METHOD_NOTES: Photoswitchable KFERQ-Dendra CMA reporter assay in NIH 3T3 fibroblasts
# Format: cell-based
# EXPERIMENTAL_CONTEXT: Time 5
As shown below, each of these molecules has a reported CMA activity (fluorescent puncta per cell, relative to untreated cells = 1) value.

Worked cases, CMA activity (fluorescent puncta per cell, relative to untreated cells = 1) given:
CC(=O)Nc1ccc(-c2cnc3cc(Cl)ccc3n2)cc1 | 2.53
Clc1ccc2c(c1)OCC(c1ccc(-c3ccccc3)cc1)=N2 [CA39, reference compound] | 2.457
CC(=O)Nc1ccc(C2=Nc3ccc(Cl)cc3OC2)cc1 [CA77, reference compound] | 2.667

Q) Which CMA activity (fluorescent puncta per cell, relative to untreated cells = 1) is listed for Clc1ccc2nc(-c3ccc(-c4ccccc4)cc3)cnc2c1 ?
A) 2.107

----------
# METHOD_NOTES: Pharmacokinetics (plasma and brain levels) in ICR (CD-1) mice
# Type: in vivo
# EXPERIMENTAL_CONTEXT: male, ICR (CD-1), mouse, plasma, iv, 1 mg/kg, i.v. 1 mg/kg, mouse plasma, 0.25 h; read-out: Conc. in plasma, individual animal
OBSERVABLE: concentration at 0.25 h (ng/mL)
Give a bare numeral; the unit ng/mL is implied.

Q) What does the data say about its concentration at 0.25 h? Entry: CC(=O)Nc1ccc(-c2cnc3cc(Cl)ccc3n2)cc1 [CA77.1]
A) 132

----------
# METHOD_NOTES: Pharmacokinetics (plasma and brain levels) in ICR (CD-1) mice
# Assay type: in vivo
# EXPERIMENTAL_CONTEXT: male, mouse, plasma, po; p.o. 10 mg/kg, ICR (CD-1) mice; read-out: Cmax
OBSERVABLE: Cmax (ng/mL)
Quick reminder: number only, in ng/mL, skip the unit.

Q) GET /values?readout=Cmax&item= CC(=O)Nc1ccc(-c2cnc3cc(Cl)ccc3n2)cc1
A) 464

----------
# METHOD_NOTES: Pharmacokinetics (plasma and brain levels) in ICR (CD-1) mice
# Format: in vivo
# EXPERIMENTAL_CONTEXT: male, ICR (CD-1), mouse, brain/plasma, iv, 1 mg/kg, i.v. 1 mg/kg, mouse, 0.083 h; read-out: Brain/Plasma ratio, individual animal
OBSERVABLE: Kp at 0.083 h
API note: the answer field is a bare number with no unit suffix.

CC(=O)Nc1ccc(-c2cnc3cc(Cl)ccc3n2)cc1 [CA77.1] | 5.81

Q) May I ask what Kp at 0.083 h has been recorded for CC(=O)Nc1ccc(C2=Nc3ccc(Cl)cc3OC2)cc1 [CA77, reference compound] ?
A) 71.3

----------
# METHOD_NOTES: Pharmacokinetics (plasma and brain levels) in ICR (CD-1) mice
# Type: in vivo
# EXPERIMENTAL_CONTEXT: male, ICR (CD-1), mouse, plasma, iv, 1 mg/kg, i.v. 1 mg/kg, mouse plasma, 8.00 h; read-out: Conc. in plasma, Mean
OBSERVABLE: concentration at 8 h (ng/mL)
// units = ng/mL; emit number, no label

Q) Fill in the blank: the reported concentration at 8 h of CC(=O)Nc1ccc(-c2cnc3cc(Cl)ccc3n2)cc1 is ____.
A) 2

----------
# METHOD_NOTES: Pharmacokinetics (plasma and brain levels) in ICR (CD-1) mice
# Type: in vivo
# EXPERIMENTAL_CONTEXT: male, ICR (CD-1), mouse, plasma, iv, 1 mg/kg, i.v. 1 mg/kg, mouse plasma, 24.0 h; read-out: Conc. in plasma, individual animal
OBSERVABLE: concentration at 24 h (ng/mL)
Number only, in ng/mL; omit the unit.

Q) I am curious: what concentration at 24 h value has been reported for CC(=O)Nc1ccc(-c2cnc3cc(Cl)ccc3n2)cc1 ?
A) 0.556

----------
# METHOD_NOTES: Pharmacokinetics (plasma and brain levels) in ICR (CD-1) mice
# Assay type: in vivo
# EXPERIMENTAL_CONTEXT: male, ICR (CD-1), mouse, brain/plasma, iv, 1 mg/kg, i.v. 1 mg/kg, mouse, 4.00 h; read-out: Brain/Plasma ratio, individual animal
OBSERVABLE: Kp at 4 h
Reply briefly: the number, and no unit.

Q) # input compound: CC(=O)Nc1ccc(C2=Nc3ccc(Cl)cc3OC2)cc1 [CA77, reference compound] ; wanted: its Kp at 4 h
A) 188

----------
# METHOD_NOTES: Pharmacokinetics (plasma and brain levels) in ICR (CD-1) mice
# Type: in vivo
# EXPERIMENTAL_CONTEXT: male, mouse, plasma, iv; i.v. 1 mg/kg, ICR (CD-1) mice
OBSERVABLE: AUC(0-t)
Quick note: unit goes after the number.

Q) Bench note: what AUC(0-t) did CC(=O)Nc1ccc(-c2cnc3cc(Cl)ccc3n2)cc1 show?
A) 314 ng·h/mL

----------
# METHOD_NOTES: Pharmacokinetics (plasma and brain levels) in ICR (CD-1) mice
# Format: in vivo
# EXPERIMENTAL_CONTEXT: male, ICR (CD-1), mouse, brain, iv, 1 mg/kg, i.v. 1 mg/kg, mouse brain, 0.50 h; read-out: Conc. in brain, Mean
# Procedure: ICR (CD-1) male mice were fasted at least three horns and water was available ad libitum before the study. Animals were housed in a controlled environment, target conditions: temperature 18 to 29° C., relative humidity 30 to 70%. Temperature and relative humidity was monitored daily. […] Mice were sacrificed and plasma and brains were obtained at 0.083, 0.25, 0.50, 1.0, 2.0, 4.0, 8.0, and 24.0 hours after administration and drug concentration determined using LC-MS/MS. […]
OBSERVABLE: concentration at 0.5 h (ng/g)
A number alone suffices; assume ng/g.

CC(=O)Nc1ccc(-c2cnc3cc(Cl)ccc3n2)cc1 | 812

# ---- query compound ----
Q) So what's the measured concentration at 0.5 h for this one? CC(=O)Nc1ccc(C2=Nc3ccc(Cl)cc3OC2)cc1 [CA77, reference compound]
A) 2650

----------
# METHOD_NOTES: Pharmacokinetics (plasma and brain levels) in ICR (CD-1) mice
# Type: in vivo
# EXPERIMENTAL_CONTEXT: male, ICR (CD-1), mouse, plasma, iv, 1 mg/kg, i.v. 1 mg/kg, mouse plasma, 2.00 h; read-out: Conc. in plasma, Mean
OBSERVABLE: concentration at 2 h (ng/mL)
I only need the number, in ng/mL, no unit after it.

CC(=O)Nc1ccc(-c2cnc3cc(Cl)ccc3n2)cc1 | 46

Q) // lookup concentration at 2 h for CC(=O)Nc1ccc(C2=Nc3ccc(Cl)cc3OC2)cc1 [CA77, reference compound]
A) 4.37
